EXPERIMENT NOTES: clinical
CONDITION CONTEXT: human, in vivo, iv, Vdss
Rule: measured Vd below 0.6 L/kg gets true (1); anything equal to or greater than 0.6 L/kg gets false (0).

Example entries begin here.
# COMPOUND, CAT
measured = [
    ("N[C@H](C(=O)O)[C@@H]1CC(Cl)=NO1", "true (1)"),
    ("CN(C)CCN(Cc1cccs1)c1ccccn1", "false (0)"),
]

-- ask Check if Vd falls below 0.6 L/kg for `CC(=O)Oc1ccccc1C(=O)O` .
-- reply true (1)

-- ask is_below(Vd, 0.6 L/kg) for CCC1CN2CCC1CC2[C@@H](O)c1ccnc2ccc(OC)cc12 (stereo partly drawn) [DIHYDROQUINIDINE] ?
-- reply false (0)

-- ask # TODO verify Vd < 0.6 L/kg strictly for this compound: `Clc1cccc(Cl)c1N=C1NCCN1`
-- reply false (0)

-- ask Consider the compound `O=c1n(CCCN2CCN(c3cccc(Cl)c3)CC2)nc2ccccn12` . Is its Vd strictly less than 0.6 L/kg?
-- reply true (1)

-- ask Is Vd of `CN[C@@H]1C[C@H]2O[C@@](C)([C@@H]1OC)n1c3ccccc3c3c4c(c5c6ccccc6n2c5c31)C(=O)N[C@@H]4O` strictly below 0.6 L/kg?
-- reply true (1)

-- ask Could you please tell me whether Vd recorded for `N[C@@H](C(=O)N[C@@H]1C(=O)N2C(C(=O)O)=C(CSc3c[nH]nn3)CS[C@H]12)c1ccc(O)cc1` is less than 0.6 L/kg?
-- reply true (1)

###

In this section, each of the compounds is paired with its reported Vd.
EXPERIMENT NOTES: clinical
CONDITION CONTEXT: human, in vivo, iv, Vdss
A number alone suffices; assume L/kg.

# COMPOUND, Vd, L/kg
data = [
    ("O=C(O)Cn1c(=O)c(=O)[nH]c2cc([N+](=O)[O-])c(-n3ccnc3)cc21", 0.19),
    ("CCC1=C(C)CN(C(=O)NCCc2ccc(S(=O)(=O)NC(=O)N[C@H]3CC[C@H](C)CC3)cc2)C1=O [GLIMEPIRIDE]", 0.19),
    ("C=CCN1CCCC1CNC(=O)c1cc2[nH]nnc2cc1OC (configuration not stated) [ALIZAPRIDE]", 1.6),
    ("C[C@@H](O)[C@H]1C(=O)N2C(C(=O)O)=C(S[C@H]3C[C@@H](C(=O)N4CC[C@H](NC(=O)CNC(=N)N)C4)N(C)C3)[C@H](C)[C@H]12", 0.23),
    ("CN1C(=O)C(O)N=C(c2ccccc2Cl)c2cc(Cl)ccc21 (configuration not stated)", 1.6),
    ("CC1=C(C(=O)O)N2C(=O)[C@@H](NC(=O)[C@H](N)C3=CCC=CC3)[C@H]2SC1", 0.21),
    ("CCCCc1ncc(/C=C(\\Cc2cccs2)C(=O)O)n1Cc1ccc(C(=O)O)cc1", 0.17),
    ("CO/N=C(\\C(=O)N[C@@H]1C(=O)N2C(C(=O)O)=C(CSc3nc(C)c(CC(=O)O)s3)CS[C@H]12)c1csc(N)n1", 0.054),
]

-- ask Field request: Vd | item: COc1ccc2cc1Oc1cc3c(cc1OC)CC[N+](C)(C)[C@H]3Cc1ccc(cc1)Oc1c(OC)c(OC)cc3c1[C@@H](C2)[N+](C)(C)CC3.[I-].[I-] [METOCURINE IODIDE]
-- reply 0.4

-- ask What does the record list as Vd for `NCCCCCC(=O)O` ?
-- reply 0.39

-- ask Recorded Vd of `CN1C[C@H](C(=O)N[C@]2(C)O[C@@]3(O)[C@@H]4CCCN4C(=O)[C@H](Cc4ccccc4)N3C2=O)C=C2c3cccc4[nH]cc(c34)C[C@H]21` , please.
-- reply 3.6

-- ask Would you kindly share the measured Vd for `Oc1ncnc2[nH]ncc12` ?
-- reply 0.58

-- ask Which value of Vd has been reported for CCNCC(O)c1cccc(O)c1 (configuration not stated) in the records?
-- reply 2.1

###

EXPERIMENT NOTES: clinical
CONDITION CONTEXT: human, in vivo, iv
MEASUREMENT LABEL: MRT (h)
Numeric answer only, unit h assumed.

# COMPOUND, MEASUREMENT LABEL, READOUT UNIT, MEASURED VALUE
measured = [
    ("CC[C@]1(O)C[C@@H]2CN(CCc3c([nH]c4ccccc34)[C@@](C(=O)OC)(c3cc4c(cc3OC)N(C)[C@H]3[C@@](O)(C(N)=O)[C@H](O)[C@]5(CC)C=CCN6CC[C@]43[C@@H]65)C2)C1", "MRT", "h", 38),
]

-- ask Look up MRT: CC(C)(C)NCC(O)COc1ccc(NC(=O)NC2CCCCC2)cc1 (centres undefined)
-- reply 11

-- ask Reported MRT for `Nc1nc(N)c2nc(-c3ccccc3)c(N)nc2n1` : what is it?
-- reply 3.4

-- ask Name the reported MRT value associated with the compound NC(=O)NO [HYDROXYUREA]
-- reply 4.8

-- ask Which MRT value belongs to CC(C)(C)NCC(O)c1cc(O)cc(O)c1 (centres undefined) ?
-- reply 7.4

-- ask Which value of MRT has been reported for `C=CCN1CC[C@]23c4c5ccc(O)c4O[C@H]2C(=O)CC[C@@]3(O)[C@H]1C5` in the records?
-- reply 1.2

###

EXPERIMENT NOTES: clinical
CONDITION CONTEXT: human, in vivo, iv
Numbered stars: 1 amine (or outer) side, 2 acyl side, 3 side chain; on linkers, the order of the positions; unused ones are H or OH. Bridge positions count the residues as written; N and C are the ends. Square brackets hold non-standard residues; d marks the D form. Peptide text beside a SMILES is read from it. * marks the point of attachment. X2 = O=C1C[C@@H](C(=O)[*:2])N([*:1])C[C@H]1CS[C@@H]1CN2CCC1CC2; NMePhe(4-NMe2) = CN[C@@H](Cc1ccc(N(C)C)cc1)C(=O)O; Picolinoyl(3-OH) = O=C(c1ncccc1O)*; Phg = N[C@H](C(=O)O)c1ccccc1; dAbu = CC[C@@H](N)C(=O)O
Please use rule met for fraction unbound under 0.2 and rule not met for everything else, ties included.

// below: answered molecules
# MOLECULE, CAT
data = [
    ("CCCCCCCCCCNCCN[C@@]1(C)C[C@H](O[C@H]2[C@H](Oc3c4cc5cc3Oc3ccc(cc3Cl)[C@@H](O)[C@@H](NC(=O)[C@@H](CC(C)C)NC)C(=O)N[C@@H](CC(N)=O)C(=O)N[C@H]5C(=O)N[C@H]3C(=O)N[C@H](C(=O)N[C@H](C(=O)O)c5cc(O)c(CNCP(=O)(O)O)c(O)c5-c5cc3ccc5O)[C@H](O)c3ccc(c(Cl)c3)O4)O[C@H](CO)[C@@H](O)[C@@H]2O)O[C@@H](C)[C@H]1O", "rule met"),
    ("CCN(C(C)=O)c1cccc(-c2ccnc3c(C#N)cnn23)c1", "rule not met"),
    ("CO/N=C(\\C(=O)N[C@@H]1C(=O)N2C(C(=O)O)=C(COC(C)=O)CS[C@H]12)c1csc(N)n1", "rule not met"),
    ("O=C([O-])[O-].[Li+].[Li+] [LITHIUM CARBONATE]", "rule not met"),
    ("CC(CN1c2ccccc2Sc2ccccc21)N(C)C (stereo not drawn)", "rule met"),
]

-- ask Is 0.2 strictly greater than the molecule's reported fraction unbound? molecule: CC/C=C\C/C=C\C/C=C\C/C=C\C/C=C\C/C=C/CCC(=O)O[C@@H](C(=O)O[C@H]1C[C@@]2(O)[C@@H](OC(=O)c3ccccc3)C3[C@](C)(C(=O)[C@H](OC(C)=O)C(=C1C)C2(C)C)[C@@H](O)C[C@H]1OC[C@@]31OC(C)=O)[C@@H](NC(=O)c1ccccc1)c1ccccc1 (stereo partly drawn)
-- reply rule met

-- ask Does CC[C@H]1NC(=O)[C@@H](NC(=O)c2ncccc2O)[C@@H](C)OC(=O)[C@H](c2ccccc2)NC(=O)[C@@H]2CC(=O)[C@H](CS[C@@H]3CN4CCC3CC4)CN2C(=O)[C@H](Cc2ccc(N(C)C)cc2)N(C)C(=O)[C@@H]2CCCN2C1=O [QUINUPRISTIN] ({Picolinoyl(3-OH)}-T[dAbu]P[NMePhe(4-NMe2)][X2][Phg]; ester 1-C) have fraction unbound strictly under 0.2?
-- reply rule not met

-- ask Record CCN(CCO)CCCC(C)Nc1ccnc2cc(Cl)ccc12 (stereo not drawn) [HYDROXYCHLOROQUINE] : is its fraction unbound strictly below 0.2?
-- reply rule not met

-- ask Does `O=C1CN=C(c2ccccc2Cl)c2cc(Cl)ccc2N1` have fraction unbound strictly under 0.2?
-- reply rule met

-- ask Strictly below 0.2: is that where fraction unbound of `CC(=O)O[C@H]1C[C@@H]2CC[C@@H]3[C@H](CC[C@@]4(C)[C@H]3C[C@H]([N+]3(C)CCCCC3)[C@@H]4OC(C)=O)[C@@]2(C)C[C@@H]1[N+]1(C)CCCCC1` sits?
-- reply rule met

-- ask Find out if reported fraction unbound for `[H]/N=C(/N)N[C@H]1[C@H](O)[C@@H](O)[C@H](O[C@@H]2O[C@@H](C)[C@](O)(C=O)[C@H]2O[C@@H]2O[C@@H](CO)[C@H](O)[C@@H](O)[C@@H]2NC)[C@@H](N/C(N)=N\[H])[C@@H]1O` is less than 0.2
-- reply rule not met

-- ask In the record for CCN(CC)CC#CCOC(=O)C(O)(c1ccccc1)C1CCCCC1 (stereo not drawn) , is fraction unbound less than 0.2?
-- reply rule met

-- ask Field: below-cutoff. Rule: recorded fraction unbound strictly less than 0.2. Subject: `Cc1cccc([C@H](C)c2cnc[nH]2)c1C`
-- reply rule met
